# System: Trypanosoma brucei
# assay.text: Trypanocidal activity against bloodstream form of Trypanosoma brucei 427-221a assessed as increase in cell swelling activity at 100 uM measured every 10 min for 60 mins by light scattering method
# Type: functional, organism-based
Active and inactive are the calls of the source. No cut-off for these calls is given here.
Write down one outcome, taken from T = active, F = inactive

// return assay outcome for CC[C@@H](C(=O)[C@@H](C)[C@@H](O)[C@H](C)[C@@H]1O[C@@H]([C@@H](CC)C(=O)O)CC[C@@H]1C)[C@H]1O[C@]2(C=C[C@@H](O)[C@]3(CC[C@@](C)([C@H]4CC[C@](O)(CC)[C@H](C)O4)O3)O2)[C@H](C)C[C@@H]1C [SALINOMYCIN] T

// return assay outcome for CC[C@@H](C(=O)[C@@H](C)[C@@H](O)[C@H](C)[C@@H]1O[C@@H]([C@@H](CC)C(=O)O)CC[C@@H]1C)[C@H]1O[C@]2(C=C[C@H](NC(=S)Nc3ccccc3)[C@]3(CC[C@@](C)([C@H]4CC[C@](O)(CC)[C@H](C)O4)O3)O2)[C@H](C)C[C@@H]1C T

// return assay outcome for CC[C@@H](C(=O)[C@@H](C)[C@@H](O)[C@H](C)[C@@H]1O[C@@H]([C@@H](CC)C(=O)O)CC[C@@H]1C)[C@H]1O[C@]2(C=C[C@H](N)[C@]3(CC[C@@](C)([C@H]4CC[C@](O)(CC)[C@H](C)O4)O3)O2)[C@H](C)C[C@@H]1C F

---

# assay.text: Selectivity index, ratio of MIC for cytotoxicity against human HL60 cells to MIC for Trypanocidal activity against bloodstream form of Trypanosoma brucei 427-221a
# Assay type: toxicity, cell-based
# test.parameters: read-out: Selectivity Index
Answer each item with its documented selectivity ratio.

Which measured selectivity ratio value corresponds to CCNC(=S)N[C@H]1C=C[C@]2(O[C@H]([C@@H](CC)C(=O)[C@@H](C)[C@@H](O)[C@H](C)[C@@H]3O[C@@H]([C@@H](CC)C(=O)O)CC[C@@H]3C)[C@@H](C)C[C@H]2C)O[C@@]12CC[C@@](C)([C@H]1CC[C@](O)(CC)[C@H](C)O1)O2 ? 100

Which measured selectivity ratio value corresponds to CC[C@@H](C(=O)[C@@H](C)[C@@H](O)[C@H](C)[C@@H]1O[C@@H]([C@@H](CC)C(=O)O)CC[C@@H]1C)[C@H]1O[C@]2(C=C[C@H](NC(=O)Nc3ccccc3)[C@]3(CC[C@@](C)([C@H]4CC[C@](O)(CC)[C@H](C)O4)O3)O2)[C@H](C)C[C@@H]1C ? 10

---

# System: Trypanosoma brucei
# assay.text: Trypanocidal activity against bloodstream form of Trypanosoma brucei 427-221a assessed as increase in cell swelling activity at 100 uM measured every 10 min for 60 mins by light scattering method
# Type: functional, organism-based
Active and inactive are the calls of the source. The rule behind the calls is not given here.
assay.readout: Activity

CCCCNC(=S)N[C@H]1C=C[C@]2(O[C@H]([C@@H](CC)C(=O)[C@@H](C)[C@@H](O)[C@H](C)[C@@H]3O[C@@H]([C@@H](CC)C(=O)O)CC[C@@H]3C)[C@@H](C)C[C@H]2C)O[C@@]12CC[C@@](C)([C@H]1CC[C@](O)(CC)[C@H](C)O1)O2 :: Active
CCCCNC(=O)N[C@H]1C=C[C@]2(O[C@H]([C@@H](CC)C(=O)[C@@H](C)[C@@H](O)[C@H](C)[C@@H]3O[C@@H]([C@@H](CC)C(=O)O)CC[C@@H]3C)[C@@H](C)C[C@H]2C)O[C@@]12CC[C@@](C)([C@H]1CC[C@](O)(CC)[C@H](C)O1)O2 :: Active

The origin of these recorded values is ChEMBL document CHEMBL5385902.
